Hello, the source for this data is PubChem BioAssay (NCI), in case you need it.

Test system: HOP-18 NSCLC
Experiment: NCI tumour cell line growth inhibition, 48 h
measured.property: TGI

The following compounds have reported results that may help.
CC(C)[O-].CC(C)[O-].O=C1C=C([O-])C(=O)c2ccccc21.O=C1C=C([O-])C(=O)c2ccccc21.[Ti+4]: > 100 µM
CC(=O)[CH-]C(=O)c1ccccc1.CC(=O)[CH-]C(=O)c1ccccc1.CC(C)CCCC(C)[C@H]1CCC2[C@@H]3CC=C4C[C@@H]([O-])CC[C@]4(C)C3CC[C@@]21C.CC(C)CCCC(C)[C@H]1CCC2[C@@H]3CC=C4C[C@@H]([O-])CC[C@]4(C)C3CC[C@@]21C.[Ti+4] (stereo partly drawn): > 100 µM
Cc1nc(C(N)=S)sc1C(=O)CC(=O)C(=O)Nc1ccccc1[N+](=O)[O-]: > 100 µM
C=C1C(=O)OC2C1CCC(C)C1C=CC(=O)C12C (stereo not drawn): 20.7 µM
CCCCCCCCCCCCCCCCCCN(C)C(COC)COP(=O)([O-])OCC[N+](C)(C)C (stereo not drawn): 17 µM

For every listed record, write down its TGI.
1. CC(=O)OC1CCn2nnc(CO)c21 (stereo not drawn)
2. O=C(O)NC(c1ccccc1)C(NC(=O)c1ccccc1)c1ccccc1 (stereo not drawn)
3. O=C1C=CC(=O)C12CCc1ccccc12

> 100 µM
> 100 µM
97.4 µM
